TEST SYSTEM: full-length NS3/NS4A-2 (HCV NS3 protease) (Hepatitis C virus genotype 1a, UniProt P27958)
Construct: Recombinant E. coli or Baculovirus full-length NS3 was diluted to 3.33 μM with assay buffer; made in house; host or cells: E. coli or baculovirus (BV) expression system
Sequence (P27958 1027-1657): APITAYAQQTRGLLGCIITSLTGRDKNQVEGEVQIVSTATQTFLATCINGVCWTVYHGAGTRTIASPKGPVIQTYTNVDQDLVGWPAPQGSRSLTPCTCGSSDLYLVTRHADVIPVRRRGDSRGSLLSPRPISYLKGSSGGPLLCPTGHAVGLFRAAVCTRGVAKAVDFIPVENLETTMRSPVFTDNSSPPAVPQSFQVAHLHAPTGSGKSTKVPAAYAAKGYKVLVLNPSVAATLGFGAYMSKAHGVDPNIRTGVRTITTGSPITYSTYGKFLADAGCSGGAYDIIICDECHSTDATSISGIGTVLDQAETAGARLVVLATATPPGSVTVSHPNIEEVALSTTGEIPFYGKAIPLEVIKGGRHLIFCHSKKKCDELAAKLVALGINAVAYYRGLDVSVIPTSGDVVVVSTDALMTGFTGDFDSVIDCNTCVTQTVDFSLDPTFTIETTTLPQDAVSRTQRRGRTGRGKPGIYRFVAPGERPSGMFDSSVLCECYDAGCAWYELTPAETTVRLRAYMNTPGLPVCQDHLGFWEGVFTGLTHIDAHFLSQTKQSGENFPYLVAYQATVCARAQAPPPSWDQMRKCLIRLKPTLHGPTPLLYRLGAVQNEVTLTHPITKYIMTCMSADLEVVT
MEASUREMENT NOTES: NS3-NS4 protease assay / NS3 inhibition assay (RETS1 substrate, fluorescence kinetic read)
Type: biochemical
TEST SETTINGS: recombinant E. coli or Baculovirus full-length NS3 with NS4A-2; read-out: NS3-NS4 IC50
Listing: IC50 of selected molecules

A selection of reference data follows.
CC(C)C(O)C(=O)N[C@H]1CCCCC/C=C\[C@@H]2C[C@@]2(C(=O)NS(=O)(=O)C2CC2)NC(=O)[C@@H]2C[C@@H](OC(=O)N3Cc4cccc(F)c4C3)CN2C1=O (stereo partly drawn) ... < 0.1 µM
CC(C)(C)OC(=O)N[C@H]1CCCCC/C=C\[C@@H]2C[C@@]2(C(=O)NS(=O)(=O)C2CCCCC2)NC(=O)[C@@H]2CCCN2C1=O ... < 1 µM

Continue with the next molecule.
Req: What reported IC50 corresponds to O=C(NC1CCCC1)N[C@H]1CCCCC/C=C\[C@@H]2C[C@@]2(C(=O)NS(=O)(=O)C2CC2)NC(=O)C2C[C@@H](OC(=O)N3Cc4cccc(F)c4C3)CN2C1=O (stereo partly drawn) on full-length NS3/NS4A-2 (HCV NS3 protease) (Hepatitis C virus genotype 1a, UniProt P27958)?
Resp: < 0.1 µM

###

TEST SYSTEM: full-length NS3/NS4A-2 (HCV NS3 protease) (Hepatitis C virus genotype 1a, UniProt P27958)
Construct: Recombinant E. coli or Baculovirus full-length NS3 was diluted to 3.33 μM with assay buffer; made in house; host or cells: E. coli or baculovirus (BV) expression system
MEASUREMENT NOTES: NS3-NS4 protease assay / NS3 inhibition assay (RETS1 substrate, fluorescence kinetic read)
Type: biochemical
TEST SETTINGS: recombinant E. coli or Baculovirus full-length NS3 with NS4A-2; read-out: NS3-NS4 IC50
PROPERTY NAME: IC50

// known answers, use as guide
CN(c1cccc(Cl)c1)S(=O)(=O)NC(=O)[C@@]12C[C@H]1/C=C\CCCCC[C@H](NC(=O)OC(C)(C)C)C(=O)N1CCC[C@H]1C(=O)N2 ... < 10 µM
CC(C)(C)OC(=O)N[C@H]1CCCCC/C=C\[C@@H]2C[C@@]2(C(=O)NS(=O)(=O)NCCc2ccccc2Cl)NC(=O)[C@@H]2CCCN2C1=O ... > 10 µM
CN(c1ccccc1)S(=O)(=O)NC(=O)[C@@]12C[C@H]1/C=C\CCCCC[C@H](NC(=O)OC(C)(C)C)C(=O)N1CCC[C@H]1C(=O)N2 ... < 10 µM
O=C1N[C@]2(C(=O)NS(=O)(=O)C3CC3)C[C@H]2/C=C\CCCCC[C@H](NCC(F)(F)F)C(=O)N2C[C@H](OC(=O)N3Cc4cccc(F)c4C3)C[C@@H]12 ... < 0.1 µM
CCCS(=O)(=O)NC(=O)C12CC1C=CCCCCCCCC(NC(=O)OC(C)(C)C)C(=O)N1CCCC1C(=O)N2 (stereo not drawn) ... < 1 µM
CCN(C)S(=O)(=O)NC(=O)[C@@]12C[C@H]1/C=C\CCCCC[C@H](NC(=O)OC(C)(C)C)C(=O)N1C[C@H](OC(=O)N3Cc4ccccc4C3)C[C@H]1C(=O)N2 ... < 0.1 µM
O=C1N[C@]2(C(=O)NCC3CC3)C[C@H]2/C=C\CCCCC[C@H](Nc2c(N3CCC3)c(=O)c2=O)C(=O)N2C[C@H](OC(=O)N3Cc4cccc(F)c4C3)C[C@@H]12 ... < 0.1 µM
CC(C)(C)OC(=O)N[C@H]1CCCCC/C=C\[C@@H]2C[C@@]2(C(=O)NCc2cccc(C(=O)O)c2)NC(=O)[C@@H]2C[C@@H](OC(=O)N3Cc4cccc(F)c4C3)CN2C1=O ... < 0.1 µM

// next item, IC50 requested
Req: Query the reported IC50 for full-length NS3/NS4A-2 (HCV NS3 protease) (Hepatitis C virus genotype 1a, UniProt P27958); item: CC(C)(C)OC(=O)N[C@H]1CCC(F)(F)CC/C=C\[C@@H]2C[C@@]2(C(=O)NS(=O)(=O)C2CC2)NC(=O)[C@@H]2C[C@@H](OC(=O)N3CCc4ccccc4C3)CN2C1=O
Resp: < 0.1 µM

###

Measured pIC50, listed per entry.
TEST SYSTEM: full-length NS3/NS4A-2 (HCV NS3 protease) (Hepatitis C virus genotype 1a, UniProt P27958)
Construct: Recombinant E. coli or Baculovirus full-length NS3 was diluted to 3.33 μM with assay buffer; made in house; host or cells: E. coli or baculovirus (BV) expression system
MEASUREMENT NOTES: NS3-NS4 protease assay / NS3 inhibition assay (RETS1 substrate, fluorescence kinetic read)
Type: biochemical
TEST SETTINGS: recombinant E. coli or Baculovirus full-length NS3 with NS4A-2; read-out: NS3-NS4 IC50
pIC50: −log10 of the molar value.

Worked cases, pIC50 given:
CC(C)(C)OC(=O)N[C@H]1CCCCC/C=C\[C@@H]2C[C@@]2(C(=O)NS(=O)(=O)N2CCCC2)NC(=O)[C@@H]2CCCN2C1=O ... > 5.00
O=C(N[C@H]1CCCCC/C=C\[C@@H]2C[C@@]2(C(=O)O)NC(=O)[C@@H]2C[C@@H](OC(=O)N3Cc4cccc(F)c4C3)CN2C1=O)OC1CCCC1 ... > 7.00
CC(C)(C)OC(=O)N[C@H]1CCCCC/C=C\[C@@H]2C[C@@]2(C(=O)NS(=O)(=O)N2CCc3ccccc3C2)NC(=O)[C@@H]2CCCN2C1=O ... > 5.00
C=CCC1(S(=O)(=O)NC(=O)[C@@]23C[C@H]2/C=C\CCCCC[C@H](NC(=O)OC(C)(C)C)C(=O)N2CCC[C@H]2C(=O)N3)CC1 ... > 5.00
CC(C)(C)OC(=O)N[C@H]1CCCCC/C=C\[C@@H]2C[C@@]2(C(=O)NS(=O)(=O)N2CCOCC2)NC(=O)[C@@H]2C[C@@H](OC(=O)N3Cc4cccc(Cl)c4C3)CN2C1=O ... > 7.00

Req: Need pIC50 of CC(C)(C)OC(=O)N[C@H]1CCCCC/C=C\[C@@H]2C[C@@]2(C(=O)NS(=O)(=O)C2(Cc3ccccc3)CC2)NC(=O)[C@@H]2CCCN2C1=O , thanks.
Resp: > 5.00

Req: Report pIC50 for O=C(N[C@H]1CCCCC/C=C\[C@@H]2C[C@@]2(C(=O)NCC2CC2)NC(=O)[C@@H]2C[C@@H](OC(=O)N3CCc4ccccc4C3)CN2C1=O)OC1CCCC1 please.
Resp: > 7.00

###

TEST SYSTEM: full-length NS3/NS4A-2 (HCV NS3 protease) (Hepatitis C virus genotype 1a, UniProt P27958)
Construct: Recombinant E. coli or Baculovirus full-length NS3 was diluted to 3.33 μM with assay buffer; made in house; host or cells: E. coli or baculovirus (BV) expression system
MEASUREMENT NOTES: NS3-NS4 protease assay / NS3 inhibition assay (RETS1 substrate, fluorescence kinetic read)
Format: biochemical
TEST SETTINGS: recombinant E. coli or Baculovirus full-length NS3 with NS4A-2; read-out: NS3-NS4 IC50
pIC50: −log10 of the molar value.
The entries below are paired with their reported pIC50.

CCOC(=O)[C@@]12C[C@H]1/C=C\CCCCC[C@H](NC(=O)OC(C)(C)C)C(=O)N1C[C@H](OC(=O)N3Cc4ccc(OCCN5CCOCC5)cc4C3)C[C@H]1C(=O)N2 [Compound 124] ... > 5.00

Req: Need pIC50, item CC(C)(C)OC(=O)N[C@H]1CCCCC/C=C\[C@@H]2C[C@@]2(C(=O)NS(=O)(=O)c2ccc3ccccc3c2)NC(=O)[C@@H]2CCCN2C1=O [Compound 2130]
Resp: > 5.00

Req: Entry CC(C)(C)OC(=O)N[C@H]1CCCCC/C=C\[C@@H]2C[C@@]2(C(=O)NCC(O)(C(F)(F)F)C(F)(F)F)NC(=O)[C@@H]2C[C@@H](OC(=O)N3Cc4cccc(F)c4C3)CN2C1=O [Compound 613] has what pIC50?
Resp: > 6.00

Req: I am curious: what pIC50 value has been reported for CC(C)(C)OC(=O)N[C@H]1CCCCC/C=C\[C@@H]2C[C@@]2(C(=O)NS(=O)(=O)c2cc(Cl)sc2Cl)NC(=O)[C@@H]2C[C@@H](OC(=O)N3Cc4cccc(Cl)c4C3)CN2C1=O [Compound 172] ?
Resp: > 7.00

Req: Item CC(C)(C)OC(=O)N[C@H]1CCCCC/C=C\[C@@H]2C[C@@]2(C(=O)NCC(F)F)NC(=O)[C@@H]2C[C@@H](OC(=O)N3Cc4cccc(F)c4C3)CN2C1=O [Compound 612] has what recorded pIC50?
Resp: > 6.00

Req: What pIC50 value was documented for this molecule, N[C@H]1CCC(F)(F)CC/C=C\[C@@H]2C[C@@]2(C(=O)NS(=O)(=O)C2CC2)NC(=O)[C@@H]2C[C@@H](OC(=O)N3Cc4cccc(F)c4C3)CN2C1=O [Compound 1003] ?
Resp: > 7.00
